- TARGET_SYSTEM: MAGL (Homo sapiens, UniProt Q99685)
- Construct: purchased Finetest (China)
- Sequence (Q99685 whole entry, species assumed): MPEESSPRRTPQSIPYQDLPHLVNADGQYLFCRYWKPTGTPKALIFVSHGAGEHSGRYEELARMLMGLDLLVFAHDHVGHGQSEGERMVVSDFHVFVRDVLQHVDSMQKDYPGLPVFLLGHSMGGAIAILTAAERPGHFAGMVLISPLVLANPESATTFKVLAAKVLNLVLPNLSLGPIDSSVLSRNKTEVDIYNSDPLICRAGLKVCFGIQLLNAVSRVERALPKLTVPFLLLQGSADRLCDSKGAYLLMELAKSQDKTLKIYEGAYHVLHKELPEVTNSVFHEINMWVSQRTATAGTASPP
- MEASUREMENT_DESCRIPTION: biochemical
VALUE_TYPE: pIC50
Reminder that pIC50 is minus the log10 of a molar concentration.

Request: Short answer please: pIC50, MAGL (Homo sapiens, UniProt Q99685), entry `CN(C)C(=O)Oc1cc(O)c2c(=O)cc(-c3ccccc3)oc2c1`
Response: 4.14

Request: What about `CCN(C)C(=O)Oc1cc(O)c2c(=O)cc(-c3ccccc3)oc2c1` ?
Response: 4.33

Request: What about `CCN(C)C(=O)Oc1ccc(-c2oc3cc(OC(=O)N(C)CC)cc(O)c3c(=O)c2OC(=O)N(C)CC)cc1` ?
Response: 4.22

Request: What about `CCN(C)C(=O)Oc1ccc(-c2oc3cc(OC(=O)N(C)CC)cc(OC(=O)N(C)CC)c3c(=O)c2OC(=O)N(C)CC)cc1` ?
Response: 3.75
